# Tested on: total bone marrow cell population
# test.summary: Flow cytometry viability of total bone marrow cells
# Format: cell-based, human
# condition.context: 25 µM, 12 h
Below is a list of entries, each paired with its recorded reduction in total BM viability value.

INSERT INTO results (compound, target_system, outcome_measure, result) VALUES
  ('C=C1C(=O)O[C@H]2[C@H]1CC/C(C)=C/CC[C@@]1(C)O[C@@H]21 [PTL, Parthenolide]', 'total bone marrow cell population', 'reduction in total BM viability', '48%'),
  ('C=C1C(=O)O[C@H]2[C@H]1CCC(C)=C1CC[C@@](C)(O)[C@@H]12 [Compound 1, Micheliolide]', 'total bone marrow cell population', 'reduction in total BM viability', '22–26%'),
  ('C=C1C(=O)O[C@@H]2/C=C(\C)CC/C=C(\C)CC[C@@H]12 [CTL, Costunolide]', 'total bone marrow cell population', 'reduction in total BM viability', '22–26%');

Now consider the entry below.
So what's the measured reduction in total BM viability for this one? C=C1C(=O)O[C@@H]2[C@H]3O[C@]3(C)CC/C=C(\CO)CC[C@@H]12 [MelB, Melampomagnolide B] 22–26%

* * *

# Tested on: murine AML cell line B117H (cytarabine-resistant)
# test.summary: Murine cytotoxicity assay, B117H
# Assay type: cell-based
# condition.context: read-out: Growth inhibitory activity (IC50) B117H; mean ± S.D.
outcome.measure: IC50 (nM)
Kindly answer with a numeric value in nM, unit omitted.

So what's the measured IC50 for this one? C=C1C(=O)O[C@@H]2[C@H]3O[C@]3(C)CC/C=C(\CO)CC[C@@H]12 [MelB, Melampomagnolide B] 2500

* * *

# Test system: murine AML cell line B140H (cytarabine-resistant)
# test.summary: Murine cytotoxicity assay, B140H
# Format: cell-based
# condition.context: Mus musculus, read-out: Growth inhibitory activity (IC50) B140H
outcome.measure: IC50 (µM)
Kindly answer with a numeric value in µM, unit omitted.

INSERT INTO measurements (compound, outcome_measure, result_number) VALUES
  ('C=C1C(=O)O[C@@H]2/C=C(\C)CC/C=C(\C)CC[C@@H]12 [CTL, Costunolide]', 'IC50', 2.8),
  ('C=C1C(=O)O[C@H]2[C@H]1CC/C(C)=C/CC[C@@]1(C)O[C@@H]21 [PTL, Parthenolide]', 'IC50', 3.4);

Now consider the entry below.
So what's the measured IC50 for this one? C=C1C(=O)O[C@H]2[C@H]1CCC(C)=C1CC[C@@](C)(O)[C@@H]12 [Compound 1, Micheliolide] 9.3

* * *

# Tested on: murine AML cell line B140H (cytarabine-resistant)
# test.summary: Murine cytotoxicity assay, B140H
# Type: cell-based
# condition.context: read-out: Growth inhibitory activity (IC50) B140H; mean ± S.D.
outcome.measure: pIC50
Convention used: pIC50 is expressed as -log10 of the molar concentration.

So what's the measured pIC50 for this one? C=C1C(=O)O[C@@H]2[C@H]3O[C@]3(C)CC/C=C(\CO)CC[C@@H]12 [MelB, Melampomagnolide B] 5.66

* * *

# Tested on: TEX cells
# test.summary: Alamar blue cytotoxicity assay, TEX
# Assay type: cell-based, human
# condition.context: read-out: Growth inhibitory activity (IC50) TEX; 48 hr treatment; mean ± S.D.
outcome.measure: pIC50
Convention used: pIC50 is expressed as -log10 of the molar concentration.

Form field: pIC50 recorded for C=C1C(=O)O[C@@H]2[C@H]3O[C@]3(C)CC/C=C(\CO)CC[C@@H]12 [MelB, Melampomagnolide B] with TEX cells (enter value) 5.17

* * *

# Tested on: NCI/ADR-RES (ovarian cancer; adriamycin-resistant)
# test.summary: Alamar blue cytotoxicity assay, NCI/ADR-RES
# Type: cell-based, human
# condition.context: read-out: Growth inhibitory activity (IC50) NCI/ADR-RES; mean ± S.D.
Below is a list of entries, each paired with its recorded pIC50 value.
Convention used: pIC50 is expressed as -log10 of the molar concentration.

Example entries begin here.
INSERT INTO results (compound, result_number) VALUES
  ('C=C1C(=O)O[C@@H]2[C@H]3O[C@]3(C)CC/C=C(\CO)CC[C@@H]12 [MelB, Melampomagnolide B]', 4.82),
  ('C/C1=C\CC[C@@]2(C)O[C@@H]2[C@H]2OC(=O)[C@@H](CN(C)C)[C@@H]2CC1.O=C(O)/C=C/C(=O)O [DMAPT, dimethylamino-parthenolide fumarate]', 4.91);

Form field: pIC50 recorded for C=C1C(=O)OC2C1CCC(C)=CCCC1(C)OC21 (stereo not drawn) [Compound 2, cis-PTL] with NCI/ADR-RES (ovarian cancer; adriamycin-resistant) (enter value) 5.03

* * *

# Test system: HL-60 (acute promyelocytic leukemia)
# test.summary: Alamar blue cytotoxicity assay, HL-60
# Assay type: cell-based, human
# condition.context: read-out: Growth inhibitory activity (IC50) HL-60; mean ± S.D.
Below is a list of entries, each paired with its recorded IC50 value.
Kindly answer with a numeric value in µM, unit omitted.

INSERT INTO measurements (compound, target_system, outcome_measure, result_number) VALUES
  ('C=C1C(=O)OC2C1CCC(C)=CCCC1(C)OC21 (stereo not drawn) [Compound 2, cis-PTL]', 'HL-60 (acute promyelocytic leukemia)', 'IC50', 8);

Form field: IC50 recorded for C=C1C(=O)O[C@@H]2[C@H]3O[C@]3(C)CC/C=C(\CO)CC[C@@H]12 [MelB, Melampomagnolide B] with HL-60 (acute promyelocytic leukemia) (enter value) 7.5

Input C/C1=C\CC[C@@]2(C)O[C@@H]2[C@H]2OC(=O)[C@@H](CN(C)C)[C@@H]2CC1.O=C(O)/C=C/C(=O)O [DMAPT, dimethylamino-parthenolide fumarate] 7.1

* * *

Below is a list of entries, each paired with its recorded pIC50 value.
# Tested on: GBM6 (glioblastoma multiforme)
# test.summary: Alamar blue cytotoxicity assay, GBM6
# Format: cell-based, human
# condition.context: Homo sapiens, GBM6, read-out: Growth inhibitory activity (IC50) GBM6
Convention used: pIC50 is expressed as -log10 of the molar concentration.

INSERT INTO assay_data (compound, result_number) VALUES
  ('C=C1C(=O)O[C@@H]2/C=C(\C)CC/C=C(\C)CC[C@@H]12 [CTL, Costunolide]', 5.15);

So what's the measured pIC50 for this one? C=C1C(=O)O[C@H]2[C@H]1CCC(C)=C1CC[C@@](C)(O)[C@@H]12 [Compound 1, Micheliolide] 5.07

* * *

Below is a list of entries, each paired with its recorded induction of intracellular ROS (MFI normalized to untreated control) value.
# Tested on: TEX cells
# test.summary: Intracellular ROS induction
# Format: cell-based, human
# condition.context: 100 µM, 30 min
Kindly answer with a numeric value in fold, unit omitted.

Example entries begin here.
INSERT INTO measurements (compound, target_system, result_units, result_number) VALUES
  ('OO [hydrogen peroxide]', 'TEX cells', 'fold', 3.1),
  ('C=C1C(=O)O[C@H]2[C@H]1CCC(C)=C1CC[C@@](C)(O)[C@@H]12 [Compound 1, Micheliolide]', 'TEX cells', 'fold', 2.9);

So what's the measured induction of intracellular ROS (MFI normalized to untreated control) for this one? C=C1C(=O)O[C@H]2[C@H]1CC/C(C)=C/CC[C@@]1(C)O[C@@H]21 [PTL, Parthenolide] 1.6

Input C=C1C(=O)O[C@@H]2/C=C(\C)CC/C=C(\C)CC[C@@H]12 [CTL, Costunolide] 2.2

* * *

# Test system: murine AML cell line B117P
# test.summary: Murine cytotoxicity assay, B117P
# Assay type: cell-based
# condition.context: read-out: Growth inhibitory activity (IC50) B117P; mean ± S.D.
outcome.measure: IC50
The reply should read as a number followed by its unit.

Form field: IC50 recorded for C=C1C(=O)O[C@@H]2[C@H]3O[C@]3(C)CC/C=C(\CO)CC[C@@H]12 [MelB, Melampomagnolide B] with murine AML cell line B117P (enter value) 2100 nM
